In this section, each of the variants is paired with its reported protein stability index.
B1: KCNA3 (parent)
chain: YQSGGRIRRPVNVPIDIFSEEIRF

- Variants of: B1
- EXPERIMENT_SUMMARY: protein stability index of a GFP-peptide fusion (GPS, HEK-293T) (PSI 1-6); higher = more stable;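 further: lentivirally expressed fusions sorted by FACS into six bins by GFP to DsRed ratio, PSI derived from sequencing read proportions per bin multiplied by bin number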
- CONDITION_INFO: c terminus: a fixed tail appended
# output: bare number, no unit

Worked set:
SEQUENCE_DATA	protein stability index
YQSGGRICRPVNVPIDIFSEEIRF [R8C]	2.03
YQSGGRIRRPVNVPIDTFSEEIRF [I17T]	1.97
YQSQGRIRRPVNVPIDIFSEEIRF [G4Q]	2.37
YASGGRIRRPVNVPIDIFSEEIRF [Q2A]	2.35
YQSGTRIRRPVNVPIDIFSEEIRF [G5T]	2.54

Consider the record given below.
Looking up YQSGGEIRRPVNVPIDIFSEEIRF [R6E] , I found its protein stability index recorded as 2.34

Recorded values, source the supplement of paper PMC10567573.
